system_under_test: T1, Histidine-tagged ROR1 protein (extracellular region) (UniProt Q01973 30-406)
T1 construct: extracellular domain; also called extracellular portion of ROR1 bearing a Histidine tag; not shown: Histidine tag
assay_name: SPR, Biacore X100; antibody captured by anti-human IgG1 on CM5 chip, His-tagged ROR1 extracellular portion injected at 1.5-100 nM
quantity_name: kon (M⁻¹ s⁻¹)
All answers are understood in M⁻¹ s⁻¹, so give the number only.

// below: answered binders
binder="Clone A chimeric ROR1 antibody (antibody, V domains shown, also called SA1) VH: QVQLQQSGTELVKPASSVRISCKASGYTLTTNYMHWIRQQPGNGLEWIGWIYPGNGNTKFNHKFDGRTTLTADKSSSIVYMQLSSLTSEDSAVYFCARSDFDYWGQGVMVTVSS VL: DIQMTQSPSSMSASLGDRVTFTCQASQDIGNNLIWFQQKPGKSPRPLMYFATSLANGVPSRFSGSRSGSDYSLTISSLESEDLADYHCLQYREYPLTFGSGTKLDLK" result=577000
binder="Clone O chimeric ROR1 antibody (antibody, V domains shown) VH: QVRLLQSGAALVKPGASVKMSCKASGYTFTDYWMSWVKQSHGKSLEWIGEIYPNSGATNFNEKFKDKATLTVDRSTSTAYMELSRLTSEDSAIYYCARGFPNNYLSWFAYWGQGTLVTVSS VL: DIVLTQSPALAVSLEQRVTIACKTSQNVDNHGISYMHWYQQKSGQEPKLLIYEGSNLAVGIPARFSGSGSGTDFTLTIDPVEADDIETYYCQQSKDDPRTFGGGTKLELK" result=174000
binder="Clone E7 chimeric ROR1 antibody (antibody, V domains shown) VH: GKLVESGGGLLKPGGSLKLSCVASGFTFDKYWMHWVRQAPGKGLEWIAEIEYDGTETNYAPSIKDRFTISRDNAKNTLYLQMSNVRSEDAATYFCTTEEMYTTDYYYGFAYWGQGTLVTVSS VL: DIVLTQSPALAVSVGQRATISCRASQSVSISRYNFMHWYQQKPGQQPKLLIYRASNLASGIPARFSGSGSGTDFTLTINPVQADDIATYYCQQNRESPRTFGGGTKLELK" result=417000

Okay, now this binder:
Consider Clone F chimeric ROR1 antibody (antibody, V domains shown) VH: EVQLVESGGGLVQPGRSLKLSCAASGFIFSEHNMAWVRQAPKKGLEWVATISDDGRNTYYRDSMRGRFTISRENARSTLYLQLDSLRSEDTATYYCASHRYNLFDSWGQGVMVTVSS VL: DIQMTQSPSFLSASVGDRVTINCKASQNIDRYLNWYQQKLGEAPKRLLYNTNKLQTGIPSRFSGSGSATDFTLTISSLQPEDFATYFCLQYNSLPLTFGSGTKLEIK . Its measured kon is 153000
